- target.or.test.system: ROR gamma ligand-binding domain (hRORg) (Homo sapiens (Human))
- Sequence (P51449 269-508): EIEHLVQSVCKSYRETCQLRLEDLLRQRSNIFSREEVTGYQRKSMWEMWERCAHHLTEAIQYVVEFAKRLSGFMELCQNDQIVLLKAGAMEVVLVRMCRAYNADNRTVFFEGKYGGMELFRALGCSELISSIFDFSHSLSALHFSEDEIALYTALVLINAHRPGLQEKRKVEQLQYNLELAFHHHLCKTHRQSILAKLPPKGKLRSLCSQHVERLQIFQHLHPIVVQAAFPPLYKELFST
- protocol.summary: GAL4-RORγ transactivation (luciferase reporter, HG5LN HeLa line)
- Format: cell-based
- run.parameters: 18 hours incubation
parameter.measured: IC50

Example entries and their recorded answers appear below.
>>> df
                                   compound  parameter_measured  measured_result
0  CCc1ccc(N(CC(C)C)S(=O)(=O)c2ccc(NCC3CCN(C(=O)OC)CC3)c(S(C)(=N)=O)c2)cc1 (stereo not drawn)                IC50        > 1000 nM
1  CCc1ccc(N(CC(C)C)S(=O)(=O)c2ccc(NC3CCS(=O)(=O)CC3)c(S(C)(=N)=O)c2)cc1 (stereo not drawn)                IC50        > 1000 nM
2  CCc1ccc(N(CC(C)C)S(=O)(=O)c2ccc3c(c2)S(=N)(=O)CN3CC2CCOCC2)cc1 (stereo not drawn)                IC50        > 1000 nM
3  CCc1ccc(N(CC(C)C)S(=O)(=O)c2ccc(OCc3cc(C)nc(C)c3)c(S(C)(=N)=O)c2)cc1 (stereo not drawn)                IC50        > 1000 nM
4  CCc1ccc(N(CC(C)C)S(=O)(=O)c2ccc3c(c2)N(CC2CCOCC2)CCS3)cc1                IC50        > 1000 nM

Exercise: ROR gamma ligand-binding domain (hRORg) (Homo sapiens (Human)) / IC50 / CCc1ccc(N(CC(C)C)S(=O)(=O)c2ccc(NC[C@@H]3CNC(=O)O3)c(S(C)(=N)=O)c2)cc1 (stereo partly drawn) : value?
Solution: > 1000 nM

Exercise: ROR gamma ligand-binding domain (hRORg) (Homo sapiens (Human)) / IC50 / CCc1ccc(N(CC(C)C)S(=O)(=O)c2ccc3c(c2)[S+]([O-])CCN3CC2CCOCC2)cc1 (stereo not drawn) : value?
Solution: > 1000 nM

Exercise: ROR gamma ligand-binding domain (hRORg) (Homo sapiens (Human)) / IC50 / "CCc1ccc(N(CC(C)C)S(=O)(=O)c2ccc3c(c2)sc(=O)n3CC2CCOCC2)cc1" : value?
Solution: 100 to 1000 nM
